- Tested on: Aspergillus flavus
- protocol.description: Antifungal activity against Aspergillus flavus after 24 hrs by agar well diffusion method
- Assay type: functional
Where a SMILES comes first, the peptide text is derived from it. The star is where a group is joined. X1 = Fc1ccc2c(C3CCN(*)CC3)noc2c1
Binary call on inhibition zone (IZ): yes from 10 mm upward, no beneath that.

molecule	system	class.name
N[C@@H](Cc1ccc(O)cc1)C(=O)N1CCC(c2noc3cc(F)ccc23)CC1.O=C(O)C(F)(F)F	Aspergillus flavus	no
N[C@@H](Cc1c[nH]c2ccccc12)C(=O)N1CCC(c2noc3cc(F)ccc23)CC1.O=C(O)C(F)(F)F	Aspergillus flavus	no
C[C@H](NC(=O)CNC(=O)CN)C(=O)N1CCC[C@H]1C(=O)N1CCC(c2noc3cc(F)ccc23)CC1.O=C(O)C(F)(F)F (H-GGAP-X1)	Aspergillus flavus	yes
N[C@@H](Cc1ccccc1)C(=O)N1CCC(c2noc3cc(F)ccc23)CC1.O=C(O)C(F)(F)F	Aspergillus flavus	yes
NCC(=O)NCC(=O)N[C@@H](Cc1ccccc1)C(=O)N1CCC[C@H]1C(=O)N1CCC(c2noc3cc(F)ccc23)CC1.O=C(O)C(F)(F)F (H-GGFP-X1)	Aspergillus flavus	yes
Fc1ccc2c(C3CCNCC3)noc2c1	Aspergillus flavus	no
CC[C@@H](C)[C@H](NC(=O)CNC(=O)CN)C(=O)N1CCC[C@H]1C(=O)N1CCC(c2noc3cc(F)ccc23)CC1.O=C(O)C(F)(F)F	Aspergillus flavus	yes
COC(=O)Nc1nc2ccccc2[nH]1	Aspergillus flavus	no
NCC(=O)N[C@@H](Cc1ccccc1)C(=O)NCC(=O)N[C@@H](Cc1ccccc1)C(=O)N1CCC[C@H]1C(=O)N1CCC(c2noc3cc(F)ccc23)CC1.O=C(O)C(F)(F)F (H-GFGFP-X1)	Aspergillus flavus	yes
CC(C)[C@H](NC(=O)CN)C(=O)NCC(=O)N[C@H](C(=O)N1CCC[C@H]1C(=O)N1CCC(c2noc3cc(F)ccc23)CC1)C(C)C.O=C(O)C(F)(F)F (H-GVGVP-X1)	Aspergillus flavus	yes

FYI, the data here is from ChEMBL document CHEMBL1667766.
